biological target: HLA DRB1 *0404 (Homo sapiens, UniProt P01903+P01911, A100R/A169T/F76Y/I96L/K127E/L162R/M171V/N62H/P40V/Q125Y/R42H/S133A/S149N/S66Y/V209L/W38E); test: IC50nM to purified HLA | DRB1 *0404
Where no end group is shown, it is not given here.
Known IC50 of a selection of sequences
Express the result in nM but write the number alone.

The following sequences have reported results that may help.
ordered.residues	u	IC50
AAANFVAAWTLKAAA [SEQ ID NO: 50]	nM	5.9
AAAEFVAANTLHAAA [SEQ ID NO: 49]	nM	6.9
AAAEFVAAWTLKAAA [SEQ ID NO: 45]	nM	2.8
AAADFVAAWTLKAAA [SEQ ID NO: 40]	nM	4
AAAHFVAANTLKAEA [SEQ ID NO: 39]	nM	14

input: State the recorded IC50 for this entry: AAADFVAANTLHAAA [SEQ ID NO: 44]
output: 8.6

input: Can you share its IC50? I mean this sequence: AAADFVAAWTLHAAA [SEQ ID NO: 41]
output: 7.1

Where do the numbers come from? From patent US9789181B2.
